Kd for assorted binders
# Target entity: T1, cynoNectin4-mFc (cyno, UniProt A0A2K5WES1 32-349)
# T1 construct: Immobilized on the SPR chip; also called cyanoNectin4; not shown: mFc (mouse Fc)
# T1 sequence: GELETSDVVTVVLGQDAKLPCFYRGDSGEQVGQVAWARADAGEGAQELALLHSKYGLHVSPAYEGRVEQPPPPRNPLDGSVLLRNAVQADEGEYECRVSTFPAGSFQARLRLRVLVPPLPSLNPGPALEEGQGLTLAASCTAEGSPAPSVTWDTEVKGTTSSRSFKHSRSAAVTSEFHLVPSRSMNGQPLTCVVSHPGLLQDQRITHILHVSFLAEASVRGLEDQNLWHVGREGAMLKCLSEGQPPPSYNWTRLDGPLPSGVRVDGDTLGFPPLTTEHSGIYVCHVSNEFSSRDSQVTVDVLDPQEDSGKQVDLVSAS
# Assay procedure: SPR, cynoNectin4-mFc immobilized, pH 7.4
Remember to follow the number with its unit.

Examples from the recorded data:
BAP-143-07-03-12 (antibody, V domains shown, Used as a conjugate with a linker payload (CAB ADC)) VH: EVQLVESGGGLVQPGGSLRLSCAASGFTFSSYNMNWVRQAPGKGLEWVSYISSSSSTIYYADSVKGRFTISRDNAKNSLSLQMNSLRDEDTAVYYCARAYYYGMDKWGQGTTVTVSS VL: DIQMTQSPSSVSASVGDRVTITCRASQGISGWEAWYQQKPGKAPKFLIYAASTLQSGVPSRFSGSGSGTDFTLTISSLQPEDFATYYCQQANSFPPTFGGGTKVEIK	1.85 nM
BAP-143-06-33-16 (antibody, V domains shown, Used as a conjugate with a linker payload (CAB ADC)) VH: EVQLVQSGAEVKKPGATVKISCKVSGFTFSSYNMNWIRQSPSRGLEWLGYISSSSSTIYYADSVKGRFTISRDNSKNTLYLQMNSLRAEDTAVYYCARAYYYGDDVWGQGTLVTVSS VL: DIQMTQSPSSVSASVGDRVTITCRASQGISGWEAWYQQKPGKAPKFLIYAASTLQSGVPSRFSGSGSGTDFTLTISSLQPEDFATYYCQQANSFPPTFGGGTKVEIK	2.37 nM
BAP-143-00-01 (antibody, V domains shown, Used as a conjugate with a linker payload (CAB ADC)) VH: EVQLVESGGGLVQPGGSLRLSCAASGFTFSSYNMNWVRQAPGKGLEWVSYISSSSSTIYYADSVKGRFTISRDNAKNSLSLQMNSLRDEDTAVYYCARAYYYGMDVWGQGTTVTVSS VL: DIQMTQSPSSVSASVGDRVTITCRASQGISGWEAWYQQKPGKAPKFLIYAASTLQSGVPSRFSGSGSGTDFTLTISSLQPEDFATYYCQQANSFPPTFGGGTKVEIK	3.25 nM

Now consider a different binder.
Q. Identify the reported Kd for the following entry. BAP-143-06-24-16 (antibody, V domains shown, Used as a conjugate with a linker payload (CAB ADC)) VH: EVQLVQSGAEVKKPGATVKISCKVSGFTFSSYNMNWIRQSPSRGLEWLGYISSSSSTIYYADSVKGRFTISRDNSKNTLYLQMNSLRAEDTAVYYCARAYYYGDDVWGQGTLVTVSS VL: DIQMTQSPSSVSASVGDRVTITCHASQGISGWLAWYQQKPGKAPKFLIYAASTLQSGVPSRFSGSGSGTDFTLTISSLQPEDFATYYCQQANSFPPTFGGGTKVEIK
A. 0.126 nM
